test system: K-562 leukemia; assay: NCI-60 one-dose screen, 48 h (100 = growth as untreated, 0 = no growth, -100 = all killed); conditions: 10 µM unless noted
The panel holds about 83,000 compounds, 20% with a hit somewhere; the sample as a whole holds those more often.
Cut-off 70% on growth, inclusive. At or above means y; below means n.

Examples from the recorded data:
[[record]]
compound = "C=C(CNCCO)[C@@H]1CC[C@]2(CO)CC[C@]3(C)[C@H](CC[C@@H]4[C@@]5(C)CCC(N)C(C)(C)[C@@H]5CC[C@]43C)[C@@H]12 (some centres not stated)"
class_name = "n"

[[record]]
compound = "C=C(C)[C@@H]1CC[C@]2(C(N)=O)CC[C@]3(C)[C@H](CC[C@@H]4[C@@]5(C)CC[C@H](OCCC#N)C(C)(C)[C@@H]5CC[C@]43C)[C@@H]12"
class_name = "y"

[[record]]
compound = "CN(C)c1ccc(-c2nc(-c3ccccc3)c(-c3ccccc3)[nH]2)cc1"
class_name = "n"

[[record]]
compound = "CCSc1oc(C)nc1[P+](c1ccccc1)(c1ccccc1)c1ccccc1"
class_name = "n"


IN: // inclusive: growth at least 70%? input: `O=C(O)/C=C/C(=O)Nc1cccc(Cn2nnc3cc(Cl)c(Cl)cc32)c1`
OUT: y

IN: How about `C[C@H](C(=O)N(CCc1ccc(Cl)c(Cl)c1)Cc1cncs1)[C@@H]1CC[C@H](C[C@H](C)n2cc(CN3CCC(c4ccc(Cl)cc4)CC3)nn2)O1` ?
OUT: n

IN: How about `C=C(C)[C@@H]1CCC[C@]2(C(=O)N3CCN(C)CC3)CC[C@]3(C)[C@@H](CC[C@@H]4[C@@]5(C)CC/C(=N\NC(=O)c6ccncc6)C(C)(C)[C@@H]5CC[C@]43C)[C@@H]12` ?
OUT: n

---

tested on: OVCAR-5 ovarian; experiment: NCI-60 one-dose screen, 48 h (100 = growth as untreated, 0 = no growth, -100 = all killed); details: 10 µM unless noted
About 83,000 compounds went through this panel and 20% of them were active in at least one assay; those are over-represented in the sample as a whole.
Recorded growth split into classes class 1 = under 30%, class 2 = from 30% up to 90%, class 3 = 90% and over

Examples from the recorded data:
[[record]]
molecule = "CC1=C(C(=O)Nc2nc(-c3ccc(Cl)cc3)cs2)[C@H](c2ccc(O)cc2)NC(=O)N1"
measured_target = "OVCAR-5 ovarian"
class_name = "class 3"

[[record]]
molecule = "COc1ccc(/C=C2\\CN(C(=O)C(Cl)Cl)C/C(=C\\c3ccc(OC)cc3)C2=O)cc1"
measured_target = "OVCAR-5 ovarian"
class_name = "class 1"

[[record]]
molecule = "CN(Cc1cnc2nc(N)nc(N)c2n1)c1ccc(C(=O)NC(CCC(=O)O)C(=O)O)cc1Br (stereo not given)"
measured_target = "OVCAR-5 ovarian"
class_name = "class 1"

[[record]]
molecule = "CC/C=C\\CCC/C=C1/C(=O)C=C[C@@H]1C/C=C\\CCCC(=O)OC"
measured_target = "OVCAR-5 ovarian"
class_name = "class 2"

[[record]]
molecule = "COc1ccc(Nc2ncccc2/C=C/C(=O)c2cc(OC)c(OC)c(OC)c2)cc1"
measured_target = "OVCAR-5 ovarian"
class_name = "class 1"

[[record]]
molecule = "Cc1ccc(S(=O)(=O)Oc2ccc3sc4cccc(NCCN(C)C)c4c(=O)c3c2)cc1"
measured_target = "OVCAR-5 ovarian"
class_name = "class 1"

[[record]]
molecule = "O=C(Nc1ccccc1[N+](=O)[O-])c1ccc(Cl)c(Cl)c1"
measured_target = "OVCAR-5 ovarian"
class_name = "class 3"


Shifting focus to the molecule that follows.
IN: Category of `CN(C)c1ccc(/C=C(\C#N)c2cc3ccccc3[nH]2)cc1` :
OUT: class 2

---

test system: PC-3 prostate; assay: NCI-60 one-dose screen, 48 h (100 = growth as untreated, 0 = no growth, -100 = all killed); settings: 10 µM unless noted
This is part of a sample that, as a whole, favours compounds with a hit. Of some 83,000 tested, about 20% had one in any assay.
Reported values of growth for individual entries
Provide the reading as a plain figure in %.

// worked examples, growth included
[[record]]
compound = "O=C(O)c1cn(C2CC2)c2cc(N3CCN(C(=O)Nc4nc(-c5ccc(Br)cc5)cs4)CC3)c(F)cc2c1=O"
readout_kind = "growth"
readout_number = 19.2

[[record]]
compound = "CC[C@]12C=CCN3CC[C@@]4(c5ccc(OC)cc5N(C)[C@H]4[C@@](O)(C(=O)OC)[C@@H]1OC(=O)CCC[P+](c1ccccc1)(c1ccccc1)c1ccccc1)[C@@H]32"
readout_kind = "growth"
readout_number = 2.13

[[record]]
compound = "CC1=CCC(OC(=O)C(C)(C)CC(O)(C(C)O)C(O)C2(C)C=CC(Cc3ccc(C(C)C)cc3)(C(C)C)CC2)(C(C)C)CC1 (centres undefined)"
readout_kind = "growth"
readout_number = 96.8

[[record]]
compound = "N#Cc1c(-c2ccccc2)nc(SCc2nnc(-c3ccc(Cl)cc3)o2)[nH]c1=O"
readout_kind = "growth"
readout_number = 61.5

[[record]]
compound = "COc1ccc2c(c1)c(-c1nc(-c3c[nH]c4ncccc34)cs1)cn2CCCN1CCOCC1"
readout_kind = "growth"
readout_number = 18.2

[[record]]
compound = "Oc1c(CN2CCOCC2)cc(COCc2ccccc2)c2cccnc12"
readout_kind = "growth"
readout_number = 31.4


IN: Record lookup: for PC-3 prostate, what growth belongs to `COc1ccc(C(=O)N2c3ccccc3Sc3ccccc32)c(C(F)(F)F)c1` ?
OUT: 15.5

IN: How about `O=C1C(Nc2ccccn2)=C(I)C(=O)c2ncccc21` ?
OUT: 6.61

IN: How about `C=C1C(=O)O[C@H]2[C@H]1CC/C(Cn1cc(CCC)nn1)=C\CC[C@@]1(C)O[C@@H]21` ?
OUT: 64.4

---

system: OVCAR-8 ovarian; assay: NCI-60 one-dose screen, 48 h (100 = growth as untreated, 0 = no growth, -100 = all killed); details: 10 µM unless noted
This is part of a sample that, as a whole, favours compounds with a hit. Of some 83,000 tested, about 20% had one in any assay. Active and inactive are the calls of the source. How the source made its calls: active means growth percent below 10; inactive means the rest.
Reported values of growth for individual entries

// worked examples, growth included
[[record]]
compound = "COc1ccc(-c2n[nH]c(=O)c3nc(NC(=S)Nc4ccc(Oc5ccccc5)cc4)sc23)cc1"
measured_target = "OVCAR-8 ovarian"
result = "86.5% (inactive)"

[[record]]
compound = "COc1ccc(-c2nc(-c3cn(C)c4ncccc34)cs2)cc1"
measured_target = "OVCAR-8 ovarian"
result = "11.5% [100 µM] (inactive)"

[[record]]
compound = "Nn1c(=O)c(=O)[nH]c2c(cnn2-c2ccccc2)c1=O"
measured_target = "OVCAR-8 ovarian"
result = "97.3% (inactive)"


IN: Record lookup: for OVCAR-8 ovarian, what growth belongs to N#Cc1ccc(O)c(C2=NCC(Cc3ccccc3)O2)c1 (stereo unspecified) ?
OUT: 37% (inactive)

IN: How about `c1nc2ccc(-c3cc4ccc5[nH]ncc5c4c4c3CCCC4)cc2[nH]1` ?
OUT: 78.5% (inactive)

IN: How about `CCc1n(Cc2ccc3ccccc3n2)cc[n+]1Cc1ccc2ccccc2n1` ?
OUT: 27.1% (inactive)

---

test system: NCI-H23 lung; test: NCI-60 one-dose screen, 48 h; conditions: 10 µM unless noted
About 83,000 compounds went through this panel and 20% of them were active in at least one assay; those are over-represented in the sample as a whole. Calls of active or inactive are those of the source. How the source made its calls: active means growth percent below 10; inactive means the rest.
// allowed return values: active, inactive

Examples from the recorded data:
[[record]]
compound = "CCOC(=O)C(=Cc1ccc(-c2ccccc2)cc1)C(=O)OCC"
class_name = "inactive"

[[record]]
compound = "Oc1ccc(/C=C/c2ccc(O)cc2)cc1"
class_name = "inactive"

[[record]]
compound = "COc1ccc(-c2nc(/C=C3\\C(=O)N(C)c4ccccc43)c3ccccn23)cc1"
class_name = "inactive"

[[record]]
compound = "Clc1ccccc1-c1cnn2cc(-c3ccccc3)cnc12"
class_name = "inactive"

[[record]]
compound = "Cc1ccc(C(=O)c2ccc(CC(=O)NN3C(=O)c4ccccc4C3=O)n2C)cc1"
class_name = "inactive"

[[record]]
compound = "CN1CCN(CCOc2ccc(-c3cnc4c(-c5ccc(F)cc5)cnn4c3)cc2)CC1"
class_name = "inactive"

[[record]]
compound = "O=C(NNC(=O)c1ccc(NC(=O)c2ccccn2)cc1)Nc1ccc2ccccc2c1"
class_name = "inactive"

[[record]]
compound = "CN(CCCNC(=O)CCOCCOCCOCCNC(=O)Cc1ccc2ccc3cccc4ccc1c2c34)CCCNc1cc(-c2ccc3ccccc3c2)nc2ccccc12"
class_name = "active"

[[record]]
compound = "CCN1CCN(CCNc2nccc(-c3c(-c4ccc(F)c(OC)c4)nc4sccn34)n2)S1(=O)=O"
class_name = "inactive"

[[record]]
compound = "COc1cc(-c2nc3cc(Cl)c(Cl)cc3[nH]2)ccc1OCC(=O)N=Nc1c(O)[nH]c2ccc(Cl)cc12"
class_name = "active"


IN: Hey, what did the test say about `N[C@H]1CCC[C@@H]1NCCCCN1C(=O)c2cccc3cc([N+](=O)[O-])cc(c23)C1=O` ?
OUT: inactive

IN: How about CC(C)CCN(CCC(C)C)CC(O)c1cc2c(c3ccccc13)CCCC2 (centres undefined) ?
OUT: inactive

IN: How about `COc1ccc(Oc2nc(Nc3ccc(N4CCOCC4)cc3)ncc2NC(=O)Nc2cc(OC)cc(OC)c2)cc1` ?
OUT: inactive

IN: How about `COc1ccc(/C=C/c2ccc3ccccc3n2)c(OC)c1` ?
OUT: inactive

IN: How about `CCOC(=O)c1cc(C(=O)c2cc(OC)c(OC)c(OC)c2)n2ccccc12` ?
OUT: inactive

IN: How about O=C(C1CCCCC1)[C@@H]1[C@]2(C(=O)NC3CCCCC32)[C@@H]2CCCN2[C@@]12C(=O)NC1CCC(Cl)CC12 (some centres undefined) ?
OUT: active

IN: How about CCO/C=N/C1=C(C#N)C(c2ccc(F)cc2)c2sc3c(F)cccc3c2O1 (centres undefined) ?
OUT: inactive

IN: How about `Cn1cc(-c2nn3cc(-c4cccs4)nc3s2)c2cc(F)ccc21` ?
OUT: inactive

IN: How about `CS(=O)(=O)Nc1cc(-c2ccc3ncc(C#N)c(Nc4ccc(F)c(Cl)c4)c3c2)cnc1Cl` ?
OUT: active

IN: How about `O=C(CN1CCN(c2cc3c(cc2F)c(=O)c(C(=O)O)cn3C2CC2)CC1)N/N=C/c1ccco1` ?
OUT: inactive

IN: How about `CN1CCN(C(=S)SCCCCOc2cc(=O)oc3ccccc23)CC1` ?
OUT: inactive

IN: How about CCC1S/C(=N\N=C(\C)c2cc3cc(Cl)ccc3o2)N(c2ccccc2)C1=O (centres undefined) ?
OUT: inactive

IN: How about `CCOC(=O)/C=C1\S/C(=N\Nc2cc(=O)[nH]c3ccccc23)N(c2ccccc2)C1=O` ?
OUT: inactive

IN: How about `CC(=O)c1sc2sc(C(C)=O)c(C)c2c1C` ?
OUT: inactive

Every entry's value here was drawn from PubChem BioAssay (NCI).
